Hello, the source for this data is ChEMBL document CHEMBL1127161, in case you need it.

target: UniProt:P29466; test: The compound was tested for its inhibitory activity against IL-1 beta converting enzyme
Sequence (P29466 120-297 limits assumed): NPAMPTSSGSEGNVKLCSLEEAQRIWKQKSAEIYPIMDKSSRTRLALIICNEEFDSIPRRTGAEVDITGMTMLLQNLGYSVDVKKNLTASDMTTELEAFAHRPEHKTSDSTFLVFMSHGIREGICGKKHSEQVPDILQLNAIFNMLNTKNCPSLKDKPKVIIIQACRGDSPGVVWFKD
Sequence (P29466 317-404 limits assumed): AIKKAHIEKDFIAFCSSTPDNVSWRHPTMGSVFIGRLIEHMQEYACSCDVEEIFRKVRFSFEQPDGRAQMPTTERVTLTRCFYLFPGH
Quantity kind: pKi
// pKi here means minus log10 of the molar concentration (mol/L)

Please look up its pKi: CC(C)[C@H](NC(=O)CCCCc1ccccc1)C(=O)N[C@@H](C)C(=O)NC(CC(=O)O)C(=O)C(F)(F)CCCc1ccccc1 (stereo partly specified)
4.38
